The measured values listed here are drawn from ChEMBL document CHEMBL1961873.

Target: Macrophage-stimulating protein receptor (Homo sapiens);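 note: reported values are the mean percent inhibition of RON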
Details: at 0.1 µM
Property measured: inhibition (%)

FC(F)(F)c1cccc(Nc2nccc(-c3cnn4nc(-c5ccccc5)ccc34)n2)c1; 3.97
Fc1ccc(-c2ncn(C3CCNCC3)c2-c2ccnc(Oc3ccc(F)c(F)c3)n2)cc1; 4.15
COc1cc2ncn(-c3cc(OCCc4ccccc4)c(C(N)=O)s3)c2cc1OC; -1.46
NC(=O)c1ccc(Oc2nccc(-c3c(-c4ccc(F)cc4)ncn3C3CCNCC3)n2)cc1; 4.31
CS(=O)(=O)CCNCc1cc(-c2cc3c(Nc4ccc(OCc5cccc(F)c5)c(Cl)c4)ncnc3s2)cs1; 2.33
N#Cc1ccc(Oc2nccc(-c3c(-c4ccc(F)cc4)ncn3C3CCNCC3)n2)cc1; 5.63
Cc1ccc(C(=O)NC(C)C)cc1-c1ccc(C(=O)NCC2CC2)cc1; -4.49
COc1ccc(C2=C(N3CCc4ccccc43)C(=O)NC2=O)cc1; 9.63
NC(=O)c1cc(-c2ccc(F)cc2)cc(-c2ccncc2)c1N; 3.91
CN(c1ccc(NC(=O)Nc2c(Cl)cccc2Cl)cc1)c1ccnc(Nc2cccc(CS(C)(=O)=O)c2)n1; 68.8
NS(=O)(=O)c1ccc(N/N=C2\C(=O)Nc3ccc(-c4cnco4)cc32)cc1; 7.46
O=C1Nc2ccccc2/C1=C/Nc1ccc(-n2cncn2)cc1; 7.27
O=C(Nc1n[nH]c2nc(-c3ccc(O)cc3)c(Br)cc12)C1CC1; 2.95
CNC(=O)c1cncc(/C=C/c2c(C)cccc2C)c1; 1.75
c1ccc(Oc2ccc(Nc3ncc(-c4ccccc4)o3)cc2)cc1; 4.82
Fc1ccc(-c2ncn(CCCN3CCOCC3)c2-c2ccncc2)cc1; -2.7
c1ccc(-c2n[nH]cc2-c2ccnc(-c3ccc(OCCN4CCOCC4)cc3)c2)nc1; -5.76
COc1cc(N2CCN(C(C)C)CC2)ccc1Nc1nc(Nc2ccc(F)cc2C(=O)NC[C@@H](O)CO)c2cc[nH]c2n1; 7.42
CCC(=O)Nc1ccc(C)c(-c2ccc(C(=O)NCC3CC3)cc2)c1; 9.18
CN1CCN(CCCNc2nc3ccc(Oc4ccc(NC(=O)Nc5cc(C(F)(F)F)ccc5F)cc4)cc3[nH]2)CC1; -2.7

====

Target: Serine/threonine-protein kinase SIK1 (Homo sapiens) (UniProt P57059);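 note: reported as mean inhibition, part of the GSK PKIS screen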
Sequence (P57059 whole entry): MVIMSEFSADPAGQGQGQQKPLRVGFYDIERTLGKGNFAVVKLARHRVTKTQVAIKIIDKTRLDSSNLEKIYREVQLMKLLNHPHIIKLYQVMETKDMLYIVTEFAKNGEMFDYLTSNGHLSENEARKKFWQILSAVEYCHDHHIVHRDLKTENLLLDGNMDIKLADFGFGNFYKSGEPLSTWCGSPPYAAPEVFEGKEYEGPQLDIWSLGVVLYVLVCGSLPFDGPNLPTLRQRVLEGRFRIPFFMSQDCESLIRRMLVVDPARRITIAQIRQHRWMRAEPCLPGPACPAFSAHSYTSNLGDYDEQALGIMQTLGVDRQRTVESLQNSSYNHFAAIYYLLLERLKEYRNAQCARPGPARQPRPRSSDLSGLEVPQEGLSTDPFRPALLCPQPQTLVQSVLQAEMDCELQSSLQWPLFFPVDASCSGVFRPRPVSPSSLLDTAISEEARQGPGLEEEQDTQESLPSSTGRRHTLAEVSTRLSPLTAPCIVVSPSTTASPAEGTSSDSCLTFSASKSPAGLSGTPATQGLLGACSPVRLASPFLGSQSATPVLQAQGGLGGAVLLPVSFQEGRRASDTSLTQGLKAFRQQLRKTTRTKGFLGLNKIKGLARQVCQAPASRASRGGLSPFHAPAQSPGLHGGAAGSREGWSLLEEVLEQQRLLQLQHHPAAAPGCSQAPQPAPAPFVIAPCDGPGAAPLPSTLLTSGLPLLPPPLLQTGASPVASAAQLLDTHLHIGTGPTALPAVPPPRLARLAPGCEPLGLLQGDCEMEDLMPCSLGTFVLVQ
Conditions: at 0.1 µM
Property measured: inhibition (%)

CCS(=O)(=O)c1ccc(OC)c(Nc2ncc(-c3cccc(-c4ccccc4F)c3)o2)c1; 0.43
CNC(=O)c1cncc(/C=C/c2c(C)cccc2C)c1; 26.2
Cc1ccc(NC(=O)c2ccoc2)cc1-c1ccc(C(=O)NCC2CC2)cc1; 2.51
Fc1ccc(-c2ncn(C3CCNCC3)c2-c2ccnc(Oc3ccc(F)c(F)c3)n2)cc1; 1.72
Nc1nccc(-c2c(-c3ccc(F)cc3)ncn2C2CCC(O)CC2)n1 (centres undefined); 0.06
CCN(CC)Cc1ccc(Nc2nccc(-c3cnn4ncccc34)n2)cc1; 2.61
NC(=O)Cc1ccccc1Oc1nccc(-c2c(-c3ccc(F)cc3)ncn2C2CCNCC2)n1; 3.93
COc1ccc2ncn(-c3cc(O[C@H](C)c4ccccc4Cl)c(C(N)=O)s3)c2c1; 4.44
CCc1ccc(Oc2nccc(-c3c(-c4ccc(F)cc4)ncn3C3CCNCC3)n2)cc1; 5.66
CS(=O)(=O)CCNCc1cc(-c2cc3c(Nc4ccc(OCc5cccc(F)c5)c(Cl)c4)ncnc3s2)cs1; 7.53
C[C@@H](Oc1cc(-n2cnc3ccc(OC4CCN(C)CC4)cc32)sc1C(N)=O)c1ccccc1Cl; 3.1
O=C1Nc2ccc(I)cc2C1=Cc1cc(Br)c(O)c(Br)c1; 8.91
O=C1Nc2ccccc2/C1=C/Nc1ccc(-n2cncn2)cc1; 5.8
Fc1ccc(-c2ncn(C3CCNCC3)c2-c2ccnc(Oc3ccc(Oc4ccccc4)cc3)n2)cc1; 7.97
O=C(Nc1ccc(Oc2ccc3[nH]c(NC(=O)c4ccccc4)nc3c2)cc1)Nc1cc(C(F)(F)F)ccc1F; 5.14
c1ccc(Oc2ccc(Nc3ncc(-c4ccccc4)o3)cc2)cc1; 2.57
C/C(Nc1ccc(S(N)(=O)=O)cc1)=C1/C(=O)Nc2ccccc21; -7.25
Clc1ccc(CNc2nccc(-c3cnn4ncccc34)n2)cc1; 0.93
O=C(Nc1n[nH]c2nc(-c3ccco3)ccc12)C1CC1; 4.89
c1ccc(-c2n[nH]cc2-c2ccnc(-c3ccc(OCCN4CCOCC4)cc3)c2)nc1; 0.04
Fc1ccc(-c2ncn(C3CCNCC3)c2-c2ccnc(Oc3ccc4c(c3)OCO4)n2)cc1; 5.99
COc1cc2ncn(-c3cc(OCc4cccs4)c(C(N)=O)s3)c2cc1OC; 4.36
CN(C)CCCNc1nccc(-c2c(-c3ccc(F)cc3)nn3cc(C(F)(F)F)ccc23)n1; 3.07
COc1cc(Nc2ncc3c(C)nc(-c4cccc(Oc5ccccc5)c4)n3n2)cc(OC)c1OC; 3.67
COc1ccc2cc(-c3c(-c4ccncc4)nc(-c4ccc(S(C)(=O)=O)cc4C)n3C)ccc2c1; 5.28
Fc1ccc(-c2ncn(CCCN3CCOCC3)c2-c2ccncc2)cc1; -2.01
NCc1ccc(-n2c(-c3nonc3N)nc3cnccc32)cc1; 5.74
Cc1ccc(C(=O)NC2CCC2)cc1-c1ccc(C(=O)NCC2CC2)cc1; 6.34
COc1cc(Nc2ncc3c(C)nc(-c4cccc(C(F)(F)F)c4)n3n2)cc(OC)c1OC; 3.9
